Where do these numbers come from? They come from patent US20250281424A1.

Give inhibition at 1 µM for every item shown.
measured_on: human PF4 (Homo sapiens)
Construct: PF4 is a 70 amino acid, lysine-rich 7.8 kDa platelet-specific protein; made in house; host or cells: Escherichia coli BL21DE3 pLysS (pT7-7) and/or Drosophila S2 cells
Sequence (P02776 32-101): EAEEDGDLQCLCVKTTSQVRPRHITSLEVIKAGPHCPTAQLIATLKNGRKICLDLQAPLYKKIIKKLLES
assay_procedure: Inhibition of PF4 tetramer formation (BS3 cross-linking, SDS-PAGE)
Type: biochemical
conditions_used: 1 μM inhibitor; read-out: % inhibition of PF4 tetramer formation at single concentration of inhibitor
Give bare numbers, in %.

compound | inhibition at 1 µM (%)
CCOCC(=O)C1C(=O)c2ccc(Oc3ccc4c(c3)C(=O)C(C(=O)COCC)C4=O)cc2C1=O (stereo not shown) | 19
CN(CC(=O)C1C(=O)c2ccc(C(=O)c3ccc4c(c3)C(=O)C(C(=O)CN(C)C(=O)OC(C)(C)C)C4=O)cc2C1=O)C(=O)OC(C)(C)C (stereo not shown) | 72
CC(=O)C1C(=O)c2ccc(Oc3ccc4c(n3)C(=O)C(C(C)=O)C4=O)cc2C1=O (stereo not shown) | 6

Let us examine a further case.
INPUT: Notebook: pull reported inhibition at 1 µM for human PF4 (Homo sapiens), entry COCCOCCNCC(=O)C1C(=O)c2ccc(S(=O)(=O)c3ccc4c(c3)C(=O)C(C(=O)CNCCOCCOC)C4=O)cc2C1=O (stereo not shown)
OUTPUT: 2

---

Record form. Attribute: inhibition at 10 µM. Fill in for each entry.
measured_on: human PF4 (Homo sapiens, UniProt P02776)
Construct: PF4 is a 70 amino acid, lysine-rich 7.8 kDa platelet-specific protein; made in house; host or cells: Escherichia coli BL21DE3 pLysS (pT7-7) and/or Drosophila S2 cells
assay_procedure: Inhibition of PF4 tetramer formation (BS3 cross-linking, SDS-PAGE)
Assay type: biochemical
conditions_used: 10 μM inhibitor (column A); read-out: % inhibition of PF4 tetramer formation at single concentration of inhibitor
Answers are plain numbers, in %.

molecule | inhibition at 10 µM / %
O=C(Cn1cnnn1)C1C(=O)c2ccc(S(=O)(=O)c3ccc4c(c3)C(=O)C(C(=O)Cn3cnnn3)C4=O)cc2C1=O (stereo not drawn) | 86
COc1ccc(NC(=O)C2C(=O)c3ccc(S(=O)(=O)c4ccc5c(c4)C(=O)C(C(=O)Nc4ccc(OC)cc4)C5=O)cc3C2=O)cc1 (stereo not drawn) | 77
CCCCC(=O)C1C(=O)c2ccc(S(=O)(=O)c3ccc4c(c3)C(=O)C(C(=O)CCCC)C4=O)cc2C1=O (stereo not drawn) | 100
O=C(c1ccc2c(c1)C(=O)C(C(=O)[C@@H]1CCCN1C(=O)OCc1ccccc1)C2=O)c1ccc2c(c1)C(=O)C(C(=O)[C@@H]1CCCN1C(=O)OCc1ccccc1)C2=O (stereo partly drawn) | 93
O=C(NCc1ccccc1)C1C(=O)c2ccc(S(=O)(=O)c3ccc4c(c3)C(=O)C(C(=O)NCc3ccccc3)C4=O)cc2C1=O (stereo not drawn) | 75
CC(C)(C)OC(=O)NCCC(=O)C1C(=O)c2ccc(S(=O)(=O)c3ccc4c(c3)C(=O)C(C(=O)CCNC(=O)OC(C)(C)C)C4=O)cc2C1=O (stereo not drawn) | 82
CCCCc1ccc(NC(=O)C2C(=O)c3ccc(C(=O)c4ccc5c(c4)C(=O)C(C(=O)Nc4ccc(CCCC)cc4)C5=O)cc3C2=O)cc1 (stereo not drawn) | 71
COc1cccc(NC(=O)C2C(=O)c3ccc(S(=O)(=O)c4ccc5c(c4)C(=O)C(C(=O)Nc4cccc(OC)c4)C5=O)cc3C2=O)c1 (stereo not drawn) | 70

Each of the following entries comes with a recorded value; kindly state inhibition at 10 µM for each.
1. COC(=O)c1ccccc1NC(=O)C1C(=O)c2ccc(C(=O)c3ccc4c(c3)C(=O)C(C(=O)Nc3ccccc3C(=O)OC)C4=O)cc2C1=O (stereo not drawn)
2. CC(C)CC(=O)C1C(=O)c2ccc(S(=O)(=O)c3ccc4c(c3)C(=O)C(C(=O)CC(C)C)C4=O)cc2C1=O (stereo not drawn)
3. C=CCNC(=O)C1C(=O)c2ccc(C(=O)c3ccc4c(c3)C(=O)C(C(=O)NCC=C)C4=O)cc2C1=O (stereo not drawn)
4. C[C@H](NC(=O)OC(C)(C)C)C(=O)C1C(=O)c2ccc(S(=O)(=O)c3ccc4c(c3)C(=O)C(C(=O)[C@H](C)NC(=O)OC(C)(C)C)C4=O)cc2C1=O (stereo partly drawn)

OUTPUT:
100
55
71
90
